Data provenance is patent US5840684A.

Parameter MIC: see the listing below.
tested on: Staphylococcus aureus 447; test: broth micro-dilution MIC; format: cell-based
Quantity: MIC (µg/mL)

1. CCCCCCCCC#CCCCCCCNC1(C)CC(OC2C(Oc3c4cc5cc3Oc3ccc(cc3Cl)C(OC3CC(C)(N)C(O)C(C)O3)C3NC(=O)C(NC(=O)C5NC(=O)C(CC(N)=O)NC(=O)C(NC(=O)C(CC(C)C)NC)C(O)c5ccc(c(Cl)c5)O4)c4ccc(O)c(c4)-c4c(O)cc(O)cc4C(C(=O)O)NC3=O)OC(CO)C(O)C2O)OC(C)C1O (stereo not drawn) = 8
2. CC(C)CC(C(=O)NC1C(=O)NC(CC(N)=O)C(=O)NC2C(=O)NC3C(=O)NC(C(=O)NC(C(=O)O)c4cc(O)cc(O)c4-c4cc3ccc4O)C(OC3CC(C)(N)C(O)C(C)O3)c3ccc(c(Cl)c3)Oc3cc2cc(c3OC2OC(CO)C(O)C(O)C2OC2CC(C)(NCc3ccc(Oc4ccccc4)cc3)C(O)C(C)O2)Oc2ccc(cc2Cl)C1O)N(C)Cc1ccc(Oc2ccccc2)cc1 (stereo not drawn) = 1
3. CC(C)CC(C(=O)NC1C(=O)NC(CC(N)=O)C(=O)NC2C(=O)NC3C(=O)NC(C(=O)NC(C(=O)O)c4cc(O)cc(O)c4-c4cc3ccc4O)C(OC3CC(C)(N)C(O)C(C)O3)c3ccc(c(Cl)c3)Oc3cc2cc(c3OC2OC(CO)C(O)C(O)C2OC2CC(C)(N)C(O)C(C)O2)Oc2ccc(cc2Cl)C1O)N(C)Cc1ccc(O)cc1 (stereo not drawn) = 0.25
4. CNC(CC(C)C)C(=O)NC1C(=O)NC(CC(N)=O)C(=O)NC2C(=O)NC3C(=O)NC(C(=O)NC(C(=O)O)c4cc(O)cc(O)c4-c4cc3ccc4O)C(OC3CC(C)(N)C(O)C(C)O3)c3ccc(c(Cl)c3)Oc3cc2cc(c3OC2OC(CO)C(O)C(O)C2OC2CC(C)(NCc3ccccc3O)C(O)C(C)O2)Oc2ccc(cc2Cl)C1O (stereo not drawn) = 2
5. CNC(CC(C)C)C(=O)NC1C(=O)NC(CC(N)=O)C(=O)NC2C(=O)NC3C(=O)NC(C(=O)NC(C(=O)O)c4cc(O)cc(O)c4-c4cc3ccc4O)C(OC3CC(C)(N)C(O)C(C)O3)c3ccc(c(Cl)c3)Oc3cc2cc(c3OC2OC(CO)C(O)C(O)C2OC2CC(C)(NCc3ccc4c(c3O)Cc3ccccc3-4)C(O)C(C)O2)Oc2ccc(cc2Cl)C1O (stereo not drawn) = 1
6. CNC(CC(C)C)C(=O)NC1C(=O)NC(CC(N)=O)C(=O)NC2C(=O)NC3C(=O)NC(C(=O)NC(C(=O)O)c4cc(O)cc(O)c4-c4cc3ccc4O)C(OC3CC(C)(N)C(O)C(C)O3)c3ccc(c(Cl)c3)Oc3cc2cc(c3OC2OC(CO)C(O)C(O)C2OC2CC(C)(NCc3ccc(C=Cc4ccccc4)cc3)C(O)C(C)O2)Oc2ccc(cc2Cl)C1O (stereo not drawn) = 0.25

###

tested on: vancomycin-susceptible enterococci; experiment: broth micro-dilution, mean geometric MIC; type: cell-based, Enterococcus faecium and Enterococcus faecalis; conditions: enterococci, 24-hour incubation
Decide using mean geometric MIC, Vancomycin Sensitive Strains alone. Strictly below 0.2 µg/mL: Condition met. Equal to or above 0.2 µg/mL: Condition not met.

1) CNC(CC(C)C)C(=O)NC1C(=O)NC(CC(N)=O)C(=O)NC2C(=O)NC3C(=O)NC(C(=O)NC(C(=O)O)c4cc(O)cc(O)c4-c4cc3ccc4O)C(OC3CC(C)(N)C(O)C(C)O3)c3ccc(c(Cl)c3)Oc3cc2cc(c3OC2OC(CO)C(O)C(O)C2OC2CC(C)(NCc3ccc(-c4ccc(C)cc4)c(C)c3)C(O)C(C)O2)Oc2ccc(cc2Cl)C1O (centres unmarked) [Compound 225] = Condition met
2) CNC(CC(C)C)C(=O)NC1C(=O)NC(CC(N)=O)C(=O)NC2C(=O)NC3C(=O)NC(C(=O)NC(C(=O)O)c4cc(O)cc(O)c4-c4cc3ccc4O)C(OC3CC(C)(N)C(O)C(C)O3)c3ccc(c(Cl)c3)Oc3cc2cc(c3OC2OC(CO)C(O)C(O)C2OC2CC(C)(NCc3ccc([N+](=O)[O-])cc3)C(O)C(C)O2)Oc2ccc(cc2Cl)C1O (centres unmarked) [Compound 78] = Condition not met
3) CNC(CC(C)C)C(=O)NC1C(=O)NC(CC(N)=O)C(=O)NC2C(=O)NC3C(=O)NC(C(=O)NC(C(=O)O)c4cc(O)cc(O)c4-c4cc3ccc4O)C(OC3CC(C)(N)C(O)C(C)O3)c3ccc(c(Cl)c3)Oc3cc2cc(c3OC2OC(CO)C(O)C(O)C2OC2CC(C)(NCc3ccc(Oc4ccccc4)cc3)C(O)C(C)O2)Oc2ccc(cc2Cl)C1O (centres unmarked) [Compound 4, p-phenoxybenzyl·A82846B] = Condition met
4) CCCCCCCC#Cc1ccc(CN[C@@]2(C)C[C@H](O[C@H]3[C@H](Oc4c5cc6cc4Oc4ccc(cc4Cl)[C@@H](O[C@H]4C[C@](C)(N)[C@@H](O)[C@H](C)O4)[C@@H]4NC(=O)[C@H](NC(=O)[C@@H]6NC(=O)[C@H](CC(N)=O)NC(=O)[C@H](NC(=O)[C@@H](CC(C)C)NC)[C@H](O)c6ccc(c(Cl)c6)O5)c5ccc(O)c(c5)-c5c(O)cc(O)cc5[C@@H](C(=O)O)NC4=O)O[C@H](CO)[C@@H](O)[C@@H]3O)O[C@@H](C)[C@@H]2O)cc1 [Compound 232] = Condition not met
5) CNC(CC(C)C)C(=O)NC1C(=O)NC(CC(N)=O)C(=O)NC2C(=O)NC3C(=O)NC(C(=O)NC(C(=O)O)c4cc(O)cc(O)c4-c4cc3ccc4O)C(OC3CC(C)(N)C(O)C(C)O3)c3ccc(c(Cl)c3)Oc3cc2cc(c3OC2OC(CO)C(O)C(O)C2OC2CC(C)(NCc3ccc(OS(=O)(=O)c4c(C)c(C)c(C)c(C)c4C)cc3)C(O)C(C)O2)Oc2ccc(cc2Cl)C1O (centres unmarked) [Compound 173] = Condition met
6) CNC(CC(C)C)C(=O)NC1C(=O)NC(CC(N)=O)C(=O)NC2C(=O)NC3C(=O)NC(C(=O)NC(C(=O)O)c4cc(O)cc(O)c4-c4cc3ccc4O)C(OC3CC(C)(N)C(O)C(C)O3)c3ccc(c(Cl)c3)Oc3cc2cc(c3OC2OC(CO)C(O)C(O)C2OC2CC(C)(NCc3ccnc4ccccc34)C(O)C(C)O2)Oc2ccc(cc2Cl)C1O (centres unmarked) [Compound 27] = Condition not met
7) CNC(CC(C)C)C(=O)NC1C(=O)NC(CC(N)=O)C(=O)NC2C(=O)NC3C(=O)NC(C(=O)NC(C(=O)O)c4cc(O)cc(O)c4-c4cc3ccc4O)C(OC3CC(C)(N)C(O)C(C)O3)c3ccc(c(Cl)c3)Oc3cc2cc(c3OC2OC(CO)C(O)C(O)C2OC2CC(C)(NCc3ccc(-c4ccccn4)cc3)C(O)C(C)O2)Oc2ccc(cc2Cl)C1O (centres unmarked) [Compound 137] = Condition not met
8) CNC(CC(C)C)C(=O)NC1C(=O)NC(CC(N)=O)C(=O)NC2C(=O)NC3C(=O)NC(C(=O)NC(C(=O)O)c4cc(O)cc(O)c4-c4cc3ccc4O)C(OC3CC(C)(N)C(O)C(C)O3)c3ccc(c(Cl)c3)Oc3cc2cc(c3OC2OC(CO)C(O)C(O)C2OC2CC(C)(NCC3=CCC4CC3C4(C)C)C(O)C(C)O2)Oc2ccc(cc2Cl)C1O (centres unmarked) [Compound 170] = Condition not met
9) CNC(CC(C)C)C(=O)NC1C(=O)NC(CC(N)=O)C(=O)NC2C(=O)NC3C(=O)NC(C(=O)NC(C(=O)O)c4cc(O)cc(O)c4-c4cc3ccc4O)C(OC3CC(C)(N)C(O)C(C)O3)c3ccc(c(Cl)c3)Oc3cc2cc(c3OC2OC(CO)C(O)C(O)C2OC2CC(C)(NCc3ccc(-c4ccc(O)cc4)cc3)C(O)C(C)O2)Oc2ccc(cc2Cl)C1O (centres unmarked) [Compound 20] = Condition not met
10) CNC(CC(C)C)C(=O)NC1C(=O)NC(CC(N)=O)C(=O)NC2C(=O)NC3C(=O)NC(C(=O)NC(C(=O)O)c4cc(O)cc(O)c4-c4cc3ccc4O)C(OC3CC(C)(N)C(O)C(C)O3)c3ccc(c(Cl)c3)Oc3cc2cc(c3OC2OC(CO)C(O)C(O)C2OC2CC(C)(NCc3ccc(-c4ccc(C)c(C)c4)cc3)C(O)C(C)O2)Oc2ccc(cc2Cl)C1O (centres unmarked) [Compound 221] = Condition met
11) CNC(CC(C)C)C(=O)NC1C(=O)NC(CC(N)=O)C(=O)NC2C(=O)NC3C(=O)NC(C(=O)NC(C(=O)O)c4cc(O)cc(O)c4-c4cc3ccc4O)C(OC3CC(C)(N)C(O)C(C)O3)c3ccc(c(Cl)c3)Oc3cc2cc(c3OC2OC(CO)C(O)C(O)C2OC2CC(C)(NCC3CCC4CCCC43)C(O)C(C)O2)Oc2ccc(cc2Cl)C1O (centres unmarked) [Compound 190] = Condition not met
